Assay: BSK_4H_SRB: Viability Assessment in the BioMAP Diversity Plus: 4H Assay (AID 2283027);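 also: cells exposed to compound for 24 h before staining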;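 as to AC50: curves fitted both ways versus DMSO so AC50 may be loss or gain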
Conditions: primary human endothelial cells (HUVEC)
The source made the active and inactive calls. The calls were made as follows: active = hit-call score of the fitted dose curve at least 0.9, where 1 is the maximum; inactive = score below 0.9.
Observed property: AC50

[[record]]
molecule = "O=C(NCc1ncc(C(F)(F)F)cc1Cl)c1c(Cl)cccc1Cl"
result = "inactive"

[[record]]
molecule = "Cc1ccc(N=Nc2c(O)ccc3ccccc23)c(C)c1"
result = "inactive"

[[record]]
molecule = "CCCCC(CC)C(=O)O (stereo not drawn)"
result = "inactive"

[[record]]
molecule = "O=C(O)CCC(F)(F)C(F)(F)C(F)(F)C(F)(F)C(F)(F)C(F)(F)F"
result = "inactive"

[[record]]
molecule = "CCCCCc1ccc(O)cc1"
result = "15.8 µM (active)"


Give AC50 for all molecules that follow.
1. C=COC(=O)C(C)(C)CCCCCC
2. CC[N+](CC)(CC)Cc1ccccc1
3. CC(C)(C)c1ccc(O)c(O)c1
4. O=C1NS(=O)(=O)c2ccccc21
5. N=C(N)c1ccc(OCCCCCOc2ccc(C(=N)N)cc2)cc1

Key:
["34.3 µM (active)", "inactive", "5.52 µM (active)", "inactive", "inactive"]

Batch of 3 molecules: report AC50 for each.
1. CC1=NN(c2ccccc2)C(=O)C1
2. COc1cc(OC)nc(NC(=O)NS(=O)(=O)Nc2ccccc2C(=O)N(C)C)n1
3. COc1cccc(O)c1

Key:
1. inactive
2. inactive
3. inactive

The reported numbers originate from PubChem BioAssay (EPA / NIEHS).
